Experiment: Tmax in Sprague-Dawley rat at 3 mg/kg, po
Assay type: ADME, organism-based
Settings: in vivo
quantity-kind: Tmax (min)
Kindly provide the numeric value in min only, without the unit symbol.

Ask: Please give the documented Tmax of C[C@]12C=CC(=O)C=C1CC[C@@H]1[C@@H]2[C@@H](O)C[C@@]2(C)[C@H]1C[C@H]1O[C@@H](c3ccc(Cc4cccc(N)c4)cc3)O[C@]12C(=O)CO
Reply: 15

* * *

Test: Cmax in Sprague-Dawley rat at 3 mg/kg, po
Format: ADME, organism-based
Set-up: dose 3 mg/kg, route po
Settings: in vivo
quantity-kind: Cmax
Please state the value followed by its unit.

Ask: Please give the documented Cmax of C[C@]12C=CC(=O)C=C1CC[C@@H]1[C@@H]2[C@@H](O)C[C@@]2(C)[C@H]1C[C@H]1O[C@@H](c3ccc(Cc4cccc(N)c4)cc3)O[C@]12C(=O)CO
Reply: 80 ng/mL
